Origin of measurements: ChEMBL document CHEMBL1149170

Assay: Selectivity for Kv1.3 over Kv1.1 voltage-gated potassium channel subunit
pKd: −log10 of the molar value.
MEASUREMENT_NAME: pKd

COc1c(C(=O)/C=C/c2cccc(O)c2)c(O)c(OC)c2occc12; 5.77

[1] COc1c(C(=O)/C=C/c2ccccc2)c(O)c(OC)c2occc12
[2] COc1cccc(/C=C/C(=O)c2c(O)c(OC)c3occc3c2OC)c1
[3] COc1c(C(C)=O)c(OCCCCCCOc2c(C(C)=O)c(OC)c3ccoc3c2OC)c(OC)c2occc12
Query: Put the compounds in ascending order of pKd. List each label, following the requested order.
Reply: 2, 1, 3
(2: 5.70, 1: 5.92, 3: 6.52)

----------
Experiment: Selectivity for Kv1.3 over Kv1.7 voltage-gated potassium channel subunit
pKd: −log10 of the molar value.
MEASUREMENT_NAME: pKd

[1] COc1c(C(=O)/C=C/c2ccccc2)c(O)c(OC)c2occc12
[2] COc1c(C(=O)/C=C/c2cccc(O)c2)c(O)c(OC)c2occc12
Query: For the two items 1 and 2 , which reports the higher pKd value? Write down the label attached to your selection.
Reply: 1

----------
// reported pKd per item
Assay: Selectivity for Kv1.3 over Kv1.2 voltage-gated potassium channel subunit
Recall that pKd is obtained by taking minus log10 of the concentration measured in molar.

Nc1ccncc1; 3.23

Entry COc1c(C(C)=O)c(OCCCCCCOc2c(C(C)=O)c(OC)c3ccoc3c2OC)c(OC)c2occc12 ; pKd = 6.60

----------
Experiment: Selectivity for Kv1.3 voltage-gated K+ channel over IKCa1 [Ca2+] activated K+ channel
MEASUREMENT_NAME: Kd

COc1c(C(=O)/C=C/c2cccc(O)c2)c(O)c(OC)c2occc12; > 100 µM
COc1c(C(=O)/C=C/c2ccccc2)c(O)c(OC)c2occc12; > 100 µM
Nc1ccncc1; 29 µM

Field Kd (entry COc1cccc(/C=C/C(=O)c2c(O)c(OC)c3occc3c2OC)c1 ) reads > 100 µM

----------
Species: Homo sapiens
Experiment: Inhibition of anti-CD3 dependent human T cell proliferation
Format: functional
MEASUREMENT_NAME: EC50 (nM)
// note: answer is a bare numeric in nM

COc1cccc(/C=C/C(=O)c2c(O)c(OC)c3occc3c2OC)c1; 1000

The measured EC50 associated with COc1c(C(C)=O)c(OCCCCCCOc2c(C(C)=O)c(OC)c3ccoc3c2OC)c(OC)c2occc12 reads 800

For C=C1C[C@@]2(O)[C@@H]3CC[C@@]4(C)[C@@H]5C=CC(=O)OC[C@]5(C(C)OC(C)=O)[C@@H](OC(C)=O)[C@@H](OC(C)=O)[C@@H]4[C@@]3(C)[C@H](OC(C)=O)[C@H](OC(C)=O)[C@@]2(C)C2(C(=O)OC)O[C@H]12 (stereo not given in full) [CORREOLIDE] the compound record lists EC50 as 300

EC50 recorded for this compound, COc1c(C(=O)/C=C/c2cccc(O)c2)c(O)c(OC)c2occc12 , is 1000

The value of EC50 measured for the compound COc1c(C(=O)/C=C/c2ccccc2)c(O)c(OC)c2occc12 turned out to be 600

----------
Experiment: Selectivity for Kv1.3 over Kv1.5 voltage-gated potassium channel subunit
MEASUREMENT_NAME: Kd (µM)

Nc1ccncc1; 270

[1] COc1c(C(=O)/C=C/c2cccc(O)c2)c(O)c(OC)c2occc12
[2] COc1cccc(/C=C/C(=O)c2c(O)c(OC)c3occc3c2OC)c1
[3] COc1c(C(=O)/C=C/c2ccccc2)c(O)c(OC)c2occc12
Query: Rank order required: Kd, descending. Answer with the labels in sequence, matching the requested order.
Reply: 2, 1, 3
(2: 20 µM, 1: 12 µM, 3: 5.1 µM)

----------
Target: UniProtKB P22001
Test: Dissociation constant for the blockage of voltage-gated potassium channel subunit Kv1.3 in human lymphocytes
Format: cell-based
pKd: −log10 of the molar value.
MEASUREMENT_NAME: pKd

Reference set, count: 3
COc1c(C(C)=O)c(OCCCCCOc2c(C(C)=O)c(OC)c3ccoc3c2OC)c(OC)c2occc12; 6.09
COc1c(C(C)=O)c(OCCOCCOc2c(C(C)=O)c(OC)c3ccoc3c2OC)c(OC)c2occc12; 5.40
COc1c(C(C)=O)c(OCc2cccc(COc3c(C(C)=O)c(OC)c4ccoc4c3OC)c2)c(OC)c2occc12; 6.25

[1] COc1c(C(=O)/C=C/c2cc(Br)cs2)c(O)c(OC)c2occc12
[2] COc1c(C(C)=O)c(OCc2ccc(COc3c(C(C)=O)c(OC)c4ccoc4c3OC)cc2)c(OC)c2occc12
[3] COc1c(C(=O)/C=C/c2ccccc2)c(O)cc2occc12
[4] COc1c(/C(C)=N/N=C(\C)c2c(O)c(OC)c3occc3c2OC)c(O)c(OC)c2occc12
Query: Task for the reader: rank each entry by its pKd, from the minimum upward. Dear reader, please state the labels in the requested order.
Reply: 4, 3, 2, 1
(4: 4.15, 3: 4.77, 2: 5.51, 1: 6.10)

----------
pKd values by entry
Assay: Selectivity for Kv1.3 over Kv1.2 voltage-gated potassium channel subunit
pKd: −log10 of the molar value.

# count of solved cases: 2
COc1c(C(=O)/C=C/c2ccccc2)c(O)c(OC)c2occc12; < 4.30
COc1c(C(=O)/C=C/c2cccc(O)c2)c(O)c(OC)c2occc12; < 4.30

// next item, pKd requested
pKd in this record for COc1cccc(/C=C/C(=O)c2c(O)c(OC)c3occc3c2OC)c1 : < 4.30

----------
Target: Potassium voltage-gated channel subfamily A member 3 (Homo sapiens)
Sequence (P22001 whole entry): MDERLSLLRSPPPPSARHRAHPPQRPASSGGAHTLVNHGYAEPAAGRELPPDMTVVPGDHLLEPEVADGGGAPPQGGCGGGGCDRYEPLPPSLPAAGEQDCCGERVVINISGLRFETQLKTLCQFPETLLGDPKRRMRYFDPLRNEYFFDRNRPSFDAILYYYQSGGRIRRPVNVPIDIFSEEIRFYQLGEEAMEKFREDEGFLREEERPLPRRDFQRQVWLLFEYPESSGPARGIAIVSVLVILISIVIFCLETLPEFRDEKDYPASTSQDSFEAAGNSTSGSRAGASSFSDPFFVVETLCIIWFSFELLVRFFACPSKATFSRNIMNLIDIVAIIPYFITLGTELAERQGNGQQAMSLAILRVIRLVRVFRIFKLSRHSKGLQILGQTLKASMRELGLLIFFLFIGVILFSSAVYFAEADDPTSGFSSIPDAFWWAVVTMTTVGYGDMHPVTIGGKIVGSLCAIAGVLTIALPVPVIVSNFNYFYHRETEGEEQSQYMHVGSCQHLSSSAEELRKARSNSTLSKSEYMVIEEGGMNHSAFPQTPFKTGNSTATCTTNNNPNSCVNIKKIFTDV
Assay: Dissociation constant for the blockage of voltage-gated potassium channel subunit Kv1.3 in human lymphocytes
Type: cell-based
MEASUREMENT_NAME: Kd (nM)

C=C1C[C@@]2(O)[C@@H]3CC[C@@]4(C)[C@@H]5C=CC(=O)OC[C@]5(C(C)OC(C)=O)[C@@H](OC(C)=O)[C@@H](OC(C)=O)[C@@H]4[C@@]3(C)[C@H](OC(C)=O)[C@H](OC(C)=O)[C@@]2(C)C2(C(=O)OC)O[C@H]12 (some centres undefined) [CORREOLIDE]; 100
COc1c(C(=O)CCc2ccccc2)c(O)c(OC)c2occc12; 600
COc1cccc(/C=C/C(=O)c2c(O)c(OC)c3occc3c2OC)c1; 800
COc1c(C(C)=O)c(O)c(OC)c2occc12; 50000
